system: ovariectomized mice administered with 17β-estradiol (increase in uterine weight); assay: Anti-estrogenic activity (oral administration): inhibition of estradiol-induced increase in uterine weight; type: in vivo; conditions: po; 10 mg/kg p.o. once a day for 3 days, suspended in 5% arabic gum; ovariectomized ICR mice given 17β-estradiolbenzoate 0.1 μg/mouse s.c. for 3 days; uteri weighed 24 hours after last administration
propertyLabel: inhibition in vivo at 10 mg/kg

[Q] Report inhibition in vivo at 10 mg/kg for CCC[C@@]1(c2ccc(O)cc2)COc2cc(O)ccc2[C@@H]1CCCCCCCCCC(CCC(F)(F)C(F)(F)C(F)(F)C(F)(F)F)C(=O)O (mixture of isomers) please.
[A] 85%

[Q] Cool, now CCC[C@@]1(c2ccc(O)cc2)COc2cc(O)ccc2[C@@H]1CCCCCCCCC(CCCC(F)(F)C(F)(F)C(F)(F)C(F)(F)F)C(=O)O (mixture of isomers)
[A] 95%

[Q] Cool, now CC[C@]1(c2ccc(O)cc2)CSc2cc(O)ccc2[C@H]1CCCCCCCCC(CCCCCC(F)(F)C(F)(F)F)C(=O)O (mixture of isomers)
[A] 81%

[Q] Cool, now CC[C@@]1(c2ccc(O)cc2)COc2cc(O)ccc2[C@@H]1CCCCCCCCCC(CCC(F)(F)C(F)(F)C(F)(F)C(F)(F)F)C(=O)O (mixture of isomers)
[A] 82%

###

What inhibition in vivo at 10 mg/kg was measured for each of the following?
tested on: ovariectomized mice administered with 17β-estradiol (increase in uterine weight); test: Anti-estrogenic activity (oral administration): inhibition of estradiol-induced increase in uterine weight; assay type: in vivo; details: po; 10 mg/kg p.o. once a day for 3 days, suspended in 5% arabic gum; ovariectomized ICR mice given 17β-estradiolbenzoate 0.1 μg/mouse s.c. for 3 days; uteri weighed 24 hours after last administration
// note: answer is a bare numeric in %

[Q] Report inhibition in vivo at 10 mg/kg for CCC[C@@]1(c2ccc(O)cc2)COc2cc(O)ccc2[C@@H]1CCCCCCCCCC(CCCC(F)(F)C(F)(F)C(F)(F)C(F)(F)F)C(=O)O (mixture of isomers) please.
[A] 94

[Q] Cool, now C[C@@]1(c2ccc(O)cc2)CSc2cc(O)ccc2[C@@H]1CCCCCCCCC(CCCC(F)(F)C(F)(F)F)C(=O)O (mixture of isomers) [reference compound]
[A] 75

[Q] Cool, now CC[C@@]1(c2ccc(O)cc2)COc2cc(O)ccc2[C@@H]1CCCCCCCCC(CCCC(F)(F)C(F)(F)C(F)(F)C(F)(F)F)C(=O)O (mixture of isomers)
[A] 90

[Q] Cool, now CCC[C@@]1(c2ccc(O)cc2)COc2cc(O)ccc2[C@@H]1CCCCCCCCCC(CCCCC(F)(F)C(F)(F)F)C(=O)O (mixture of isomers)
[A] 84

[Q] Cool, now CCC[C@@]1(c2ccc(O)cc2)CSc2cc(O)ccc2[C@@H]1CCCCCCCCCC(CCC(F)(F)C(F)(F)C(F)(F)C(F)(F)F)C(=O)O (mixture of isomers)
[A] 84

[Q] Cool, now CC[C@]1(c2ccc(O)cc2)CSc2cc(O)ccc2[C@H]1CCCCCCCCC(CCCC(F)(F)C(F)(F)F)C(=O)O (mixture of isomers)
[A] 96

[Q] Cool, now CC[C@@]1(c2ccc(O)cc2)CSc2cc(O)ccc2[C@@H]1CCCCCCCCC(CCC(F)(F)C(F)(F)C(F)(F)C(F)(F)F)C(=O)O (mixture of isomers)
[A] 85

[Q] Cool, now CCCC[C@@]1(c2ccc(O)cc2)COc2cc(O)ccc2[C@@H]1CCCCCCCCC(CCCC(F)(F)C(F)(F)C(F)(F)C(F)(F)F)C(=O)O (mixture of isomers)
[A] 89

[Q] Cool, now CCC[C@@]1(c2ccc(O)cc2)CSc2cc(O)ccc2[C@@H]1CCCCCCCCC(CCCC(F)(F)C(F)(F)F)C(=O)O (mixture of isomers)
[A] 91

[Q] Cool, now CC[C@]1(c2ccc(O)cc2)CSc2cc(O)ccc2[C@H]1CCCCCCCCCC(CCCC(F)(F)C(F)(F)F)C(=O)O (mixture of isomers)
[A] 91

[Q] Cool, now CC[C@@]1(c2ccc(O)cc2)COc2cc(O)ccc2[C@@H]1CCCCCCCCCC(CCCC(F)(F)C(F)(F)C(F)(F)C(F)(F)F)C(=O)O (mixture of isomers)
[A] 93

[Q] Cool, now CCC[C@@]1(c2ccc(O)cc2)COc2cc(O)ccc2[C@@H]1CCCCCCCCCC(CCCC(F)(F)C(F)(F)F)C(=O)O (mixture of isomers)
[A] 85

###

What inhibition in vivo at 10 mg/kg was measured for each of the following?
test system: ovariectomized mice administered with 17β-estradiol (increase in uterine weight); test: Anti-estrogenic activity (oral administration): inhibition of estradiol-induced increase in uterine weight; format: in vivo; conditions: po; 10 mg/kg p.o. once a day for 3 days, suspended in 5% arabic gum; ovariectomized ICR mice given 17β-estradiolbenzoate 0.1 μg/mouse s.c. for 3 days; uteri weighed 24 hours after last administration

[Q] Report inhibition in vivo at 10 mg/kg for CC[C@@]1(c2ccc(O)cc2)COc2cc(O)ccc2[C@@H]1CCCCCCCCCC(CCCCCC(F)(F)C(F)(F)F)C(=O)O (mixture of isomers) [Example 22] please.
[A] 83%

[Q] Cool, now CC[C@@]1(c2ccc(O)cc2)CSc2cc(O)ccc2[C@@H]1CCCCCCCCCC(CCC(F)(F)C(F)(F)C(F)(F)C(F)(F)F)C(=O)O (mixture of isomers) [Example 30]
[A] 89%

[Q] Cool, now CC[C@]1(c2ccc(O)cc2)CSc2cc(O)ccc2[C@H]1CCCCCCCCC(CCCCC(F)(F)C(F)(F)F)C(=O)O (mixture of isomers) [Example 15]
[A] 92%

[Q] Cool, now CCC[C@@]1(c2ccc(O)cc2)COc2cc(O)ccc2[C@@H]1CCCCCCCCC(CCCCC(F)(F)C(F)(F)F)C(=O)O (mixture of isomers) [Example 40]
[A] 82%

[Q] Cool, now CCC[C@@]1(c2ccc(O)cc2)COc2cc(O)ccc2[C@@H]1CCCCCCCCC(CCC(F)(F)C(F)(F)C(F)(F)C(F)(F)F)C(=O)O (mixture of isomers) [Example 41]
[A] 89%

[Q] Cool, now CCC[C@@]1(c2ccc(O)cc2)CSc2cc(O)ccc2[C@@H]1CCCCCCCCC(CCCCC(F)(F)C(F)(F)F)C(=O)O (mixture of isomers) [Example 36]
[A] 89%
